- studySystem: PDE6D (phosphodiesterase 6 delta), wild type, polyhistidine tag removed (UniProt O43924 1-150)
- test: FP; + compound-1, replicate 1
pKd: −log10 of the molar value. *: point of attachment. Farnesyl = CC(C)=CCC/C(C)=C/CC/C(C)=C/C*
observable: pKd

>>> datavalue("{FAM}-KKKKKKSKTKC(Farnesyl)-OMe [fluorescein-labeled KRAS HVR peptide, FAM-KKKKKKSKTKC(OMe)-Far]")
6.00
